Reference for the values: patent US20110059889A1

# target or system: T1, soluble human FcRn (shFcRn) (human, UniProt P55899 24-297; P61769 21-119)
# T1 construct: Biotinylated for the ELISA, amine-coupled to a CM5 chip for SPR; also called biotinylated shFcRn
# T1 sequence (P55899 24-297 limits assumed, chain 1 of 2): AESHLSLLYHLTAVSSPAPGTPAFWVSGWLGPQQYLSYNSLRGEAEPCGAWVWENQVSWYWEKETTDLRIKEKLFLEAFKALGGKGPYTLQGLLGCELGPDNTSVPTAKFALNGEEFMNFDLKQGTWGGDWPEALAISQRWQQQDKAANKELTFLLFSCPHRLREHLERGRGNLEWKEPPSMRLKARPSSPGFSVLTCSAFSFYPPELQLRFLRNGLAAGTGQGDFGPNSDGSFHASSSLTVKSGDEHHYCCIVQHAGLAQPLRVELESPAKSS
# T1 sequence (P61769 21-119 limits assumed, chain 2 of 2): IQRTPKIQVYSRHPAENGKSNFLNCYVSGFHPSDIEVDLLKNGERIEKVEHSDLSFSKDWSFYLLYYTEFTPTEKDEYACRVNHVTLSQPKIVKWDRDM
# procedure details: IgG competition ELISA
Bridge positions count the residues as written; N and C are the ends. Square brackets hold non-standard residues; d marks the D form. Ends that are not written are not given here. NMeL = CN[C@@H](CC(C)C)C(=O)O; Pen = CC(C)(S)[C@H](N)C(=O)O; Sar = CNCC(=O)O
recorded endpoint: pIC50
Field pIC50 (float): negative decimal logarithm of the concentration in molar.

What does the data say about its pIC50? Entry: RF[Pen]TGHF[dN][Sar][NMeL]YPC-NH2 (disulfide 3-13; N-terminus assumed; SMILES CC(C)C[C@H]1C(=O)N[C@@H](Cc2ccc(O)cc2)C(=O)N2CCC[C@H]2C(=O)N[C@H](C(N)=O)CSSC(C)(C)[C@H](NC(=O)[C@H](Cc2ccccc2)NC(=O)[C@@H](N)CCCNC(=N)N)C(=O)N[C@@H]([C@@H](C)O)C(=O)NCC(=O)N[C@@H](Cc2c[nH]cn2)C(=O)N[C@@H](Cc2ccccc2)C(=O)N[C@H](CC(N)=O)C(=O)N(C)CC(=O)N1C) [Peptide No. 243]
4.54

Reported pIC50, binder RF[Pen]TGHF[dS][Sar][NMeL]YPC-NH2 (disulfide 3-13; N-terminus assumed; SMILES CC(C)C[C@H]1C(=O)N[C@@H](Cc2ccc(O)cc2)C(=O)N2CCC[C@H]2C(=O)N[C@H](C(N)=O)CSSC(C)(C)[C@H](NC(=O)[C@H](Cc2ccccc2)NC(=O)[C@@H](N)CCCNC(=N)N)C(=O)N[C@@H]([C@@H](C)O)C(=O)NCC(=O)N[C@@H](Cc2c[nH]cn2)C(=O)N[C@@H](Cc2ccccc2)C(=O)N[C@H](CO)C(=O)N(C)CC(=O)N1C) [Peptide No. 241] : ____
4.64

---
Quick check: pIC50 of RF[Pen]TGHF[dE][Sar][NMeL]YPC-NH2 (disulfide 3-13; N-terminus assumed; SMILES CC(C)C[C@H]1C(=O)N[C@@H](Cc2ccc(O)cc2)C(=O)N2CCC[C@H]2C(=O)N[C@H](C(N)=O)CSSC(C)(C)[C@H](NC(=O)[C@H](Cc2ccccc2)NC(=O)[C@@H](N)CCCNC(=N)N)C(=O)N[C@@H]([C@@H](C)O)C(=O)NCC(=O)N[C@@H](Cc2c[nH]cn2)C(=O)N[C@@H](Cc2ccccc2)C(=O)N[C@H](CCC(=O)O)C(=O)N(C)CC(=O)N1C) [Peptide No. 244] ?
5.19
